Just for reference, patent EP4624465A1 is where these values come from.

- Test system: DDR1 kinase (Homo sapiens, UniProt Q08345)
- Sequence (Q08345 19-876 isoform Q08345-2 limits assumed): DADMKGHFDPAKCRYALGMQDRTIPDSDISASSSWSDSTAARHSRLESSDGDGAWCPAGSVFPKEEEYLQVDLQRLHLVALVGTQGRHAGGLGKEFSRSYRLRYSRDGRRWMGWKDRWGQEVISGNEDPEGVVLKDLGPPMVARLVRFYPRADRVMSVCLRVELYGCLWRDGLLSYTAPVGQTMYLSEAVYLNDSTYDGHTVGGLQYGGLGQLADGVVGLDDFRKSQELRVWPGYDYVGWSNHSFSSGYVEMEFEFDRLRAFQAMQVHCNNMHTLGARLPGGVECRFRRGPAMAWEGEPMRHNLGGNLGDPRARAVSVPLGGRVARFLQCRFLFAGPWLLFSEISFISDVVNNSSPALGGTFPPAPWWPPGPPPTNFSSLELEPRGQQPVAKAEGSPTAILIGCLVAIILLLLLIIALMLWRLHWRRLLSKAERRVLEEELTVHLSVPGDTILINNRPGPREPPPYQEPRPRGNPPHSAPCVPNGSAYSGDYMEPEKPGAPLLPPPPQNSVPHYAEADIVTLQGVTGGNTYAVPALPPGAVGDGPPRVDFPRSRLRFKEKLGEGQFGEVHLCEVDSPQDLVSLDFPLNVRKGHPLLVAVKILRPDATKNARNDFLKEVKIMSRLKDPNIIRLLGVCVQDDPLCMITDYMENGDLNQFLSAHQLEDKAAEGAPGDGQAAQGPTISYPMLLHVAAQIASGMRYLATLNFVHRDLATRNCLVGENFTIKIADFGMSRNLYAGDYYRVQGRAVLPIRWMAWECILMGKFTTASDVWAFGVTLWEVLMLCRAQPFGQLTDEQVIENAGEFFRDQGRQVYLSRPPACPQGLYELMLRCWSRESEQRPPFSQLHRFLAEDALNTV
- Test name: Evaluation of DDR1 kinase inhibition (LANCE Ultra TR-FRET kinase assay)
- Format: biochemical
- Set-up: purchased Carna Biosciences 08-113
- Condition summary: DDR1 protein 0.5 nM, LANCE Ultra ULight-poly GAT substrate, 2 hours at room temperature, duplicate; read-out: DDR-1 IC50
Counter-ions that a name gives are not always drawn.
Observed property: pIC50
Quick note: pIC50 means taking -log10 of the concentration in moles per liter.

Nc1cc(C(=O)N2CC(c3nn(CC(=O)N4CCC[C@H]4C(F)(F)F)c4ccccc34)C2)ccn1 | 8.24
C[C@H]1CN(C(=O)Cn2nc(C3CN(C(=O)c4ccnc(N)c4)C3)c3c(F)cc(F)cc32)CCO1 [Compound E-79, hydrochloride] | 7.46
CC(C)N(C(=O)Cn1nc(C2CN(C(=O)c3cc(N)ncc3F)C2)c2ccccc21)C(C)C | 8.21

Query string: Fill blank: measured pIC50 of the compound O=C(Cn1nc(C2CN(C(=O)c3ccnc(NC4COC4)c3)C2)c2c(F)cc(F)cc21)NCC(F)(F)F is ____.
Result string: 6.80
